Is logP at least 1? Then satisfied. If not, not satisfied.

query: For this compound, is measured logP 1 or higher? CC(C)(C)[N+]([O-])=Cc1ccccc1[N+](=O)[O-]
result: not satisfied

query: For this compound, is measured logP 1 or higher? CC(C)(C)[N+]([O-])=Cc1ccc(C(=O)O)cc1
result: satisfied

query: For this compound, is measured logP 1 or higher? COc1cc(OC)c(C=[N+]([O-])C(C)(C)C)c(OC)c1
result: satisfied

query: For this compound, is measured logP 1 or higher? CC(C)(C)[N+]([O-])=Cc1ccccc1Br
result: satisfied

query: For this compound, is measured logP 1 or higher? CC1(C)C=[N+]([O-])C(C)(C)C1
result: not satisfied

query: For this compound, is measured logP 1 or higher? CC(C)(C)[N+]([O-])=Cc1cc[n+]([O-])cc1
result: not satisfied

query: For this compound, is measured logP 1 or higher? CC(C)(C)[N+]([O-])=Cc1ccc([N+](=O)[O-])cc1
result: satisfied

* * *

test-description: method code SF-AS, from DOI: 10.1016/0165-022x(96)00008-5, PMID: 8844325
quantity-measured: logP

For CC(C)(C)[N+]([O-])=Cc1ccc(Cl)cc1 the molecule record lists logP as 2.39

For CC(C)(C)[N+]([O-])=Cc1ccc(C#N)cc1 the molecule record lists logP as 0.52

For COc1cccc(C=[N+]([O-])C(C)(C)C)c1 the molecule record lists logP as 1.41

For CC1(C)CCC(c2ccccc2)=[N+]1[O-] the molecule record lists logP as 1.03

For CC(C)(C)[N+]([O-])=Cc1cccc([N+](=O)[O-])c1 the molecule record lists logP as 1.3

For CC(C)(C)[N+]([O-])=Cc1ccncc1 the molecule record lists logP as 0.4

For Cc1ccccc1C=[N+]([O-])C(C)(C)C the molecule record lists logP as 1.53

For CC(C)(C)[N+]([O-])=Cc1ccc(O)cc1 the molecule record lists logP as 0.58

For CC(C)(C)[N+]([O-])=Cc1cccc(O)c1 the molecule record lists logP as 1

For CC1(C)CCC(C(F)(F)F)=[N+]1[O-] the molecule record lists logP as 0.2

For CC(C)(C)[N+]([O-])=Cc1ccc(Br)cc1 the molecule record lists logP as 1.98

For Cc1cccc(C=[N+]([O-])C(C)(C)C)c1 the molecule record lists logP as 1.58

For CC(C)(C)[N+]([O-])=Cc1ccccc1O the molecule record lists logP as 1.31

Source listed as the SangsterLogP compilation.
